# pIC50 per record follows
# TARGET: G1 APOL1 (Homo sapiens, UniProt O14791, I384M/S342G)
# Construct: expressed in transfected cells
# Sequence (O14791 28-398 S342G/I384M): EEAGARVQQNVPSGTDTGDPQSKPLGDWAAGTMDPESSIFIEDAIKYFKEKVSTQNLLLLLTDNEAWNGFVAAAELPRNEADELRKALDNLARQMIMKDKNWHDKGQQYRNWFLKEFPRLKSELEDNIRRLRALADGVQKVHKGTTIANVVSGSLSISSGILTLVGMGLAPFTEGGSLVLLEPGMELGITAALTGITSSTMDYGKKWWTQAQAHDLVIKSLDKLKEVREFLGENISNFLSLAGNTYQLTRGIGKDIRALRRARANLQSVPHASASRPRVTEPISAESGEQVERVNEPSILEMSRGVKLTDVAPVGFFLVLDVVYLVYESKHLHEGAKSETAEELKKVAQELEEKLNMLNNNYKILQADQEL
# RUN_DESCRIPTION: Acute APOL1 Thallium Assay with Inducible Stable Clones of HEK 293 Cells
# Assay type: cell-based
# CONDITION_INFO: HEK 293 inducible stable clones, G1 APOL1; read-out: Thallium Assay (IC50)
# Text: Acute APOL1 Thallium Assay with Inducible Stable Clones of HEK 293 Cells Apolipoprotein L1 (APOL1) proteins form potassium-permeable cation pores in the plasma membrane. APOL1 risk variants (G1 and G2) induce greater potassium flux than G0 in HEK293 cells. […] The increase of fluorescence in the assay represents the influx of Tl+ into the cell specifically through the potassium channel (i.e. through APOL1 pores), providing a functional measurement of potassium channel/pore activity. […]
pIC50: −log10 of the molar value.

Solved entries:
# MOLECULE, pIC50
records = [
    ("O=C(CCc1c(-c2ccc(F)cc2)[nH]c2ccc(F)cc12)N[C@@H]1CCC[C@H]1O", "< 6.00"),
    ("Nc1ncc(C(=O)NCCc2c(-c3ccc(F)cc3)[nH]c3c(F)cc(F)cc23)s1", "< 6.00"),
    ("O=C(NCCc1c(-c2ccc(F)cc2)[nH]c2c(F)cc(F)cc12)NCC1(O)CCC1", "< 6.00"),
    ("O=C(CCc1c(-c2ccc(F)cc2)[nH]c2c(F)cc(F)cc12)N1CCC[C@H]1CO", "< 6.00"),
    ("O=C(CCc1c(-c2ccc(F)cc2)[nH]c2ccc(F)cc12)N1CCCC1CO (centres unmarked)", "< 6.00"),
]

Request: Notebook entry, G1 APOL1 (Homo sapiens, UniProt O14791, I384M/S342G) assay: pIC50 of "Cc1cc(F)c2[nH]c(-c3ccc(F)cc3)c(CCC(=O)N[C@H](CO)C(F)(F)F)c2c1" = ?
Response: < 6.00

Request: Give G1 APOL1 (Homo sapiens, UniProt O14791, I384M/S342G) pIC50 for O=C(CCc1c(-c2ccc(F)cc2)[nH]c2c(F)cc(F)cc12)NC(CO)CF (centres unmarked)
Response: > 6.60

Request: Record lookup: for G1 APOL1 (Homo sapiens, UniProt O14791, I384M/S342G), what pIC50 belongs to "C[C@H](O)[C@H](CO)NC(=O)CCc1c(-c2ccc(F)cc2)[nH]c2ccc(F)cc12" ?
Response: 6.00 to 6.60

* * *

# TARGET: G1 APOL1 (Homo sapiens, UniProt O14791, I384M/S342G)
# Construct: expressed in transfected cells
# RUN_DESCRIPTION: Acute APOL1 Thallium Assay with Inducible Stable Clones of HEK 293 Cells
# Assay type: cell-based
# CONDITION_INFO: HEK 293 inducible stable clones, G1 APOL1; read-out: Thallium Assay (IC50)
pIC50: −log10 of the molar value.
ENDPOINT: pIC50

Field: example entries. Status: answers known.
# COMPOUND, EXPERIMENTAL_RESULT
data = [
    ("O=C(CCc1c(-c2ccc(F)cc2)[nH]c2c(F)cc(Br)cc12)N[C@H](CO)C(F)(F)F", "< 6.00"),
    ("CC(=O)OCC(CO)NC(=O)CCc1c(-c2ccc(F)cc2)[nH]c2c(F)cc(F)cc12 (centres unmarked)", "6.00 to 6.60"),
    ("Cc1cc(F)c2[nH]c(-c3ccc(F)cc3)c(CCC(=O)NC(C)(CO)CO)c2c1", "< 6.00"),
    ("O=C(CCc1c(-c2ccc(F)cc2)[nH]c2ccc(F)cc12)N[C@H](CO)C(F)(F)F", "< 6.00"),
    ("NC(=O)CNC(=O)CCc1c(-c2ccc(F)cc2)[nH]c2c(F)cc(F)cc12", "< 6.00"),
    ("CN(CCN)C(=O)CCc1c(-c2ccc(F)cc2)[nH]c2ccc(F)cc12", "< 6.00"),
    ("O=C(CCc1c(-c2ccc(F)cc2)[nH]c2c(F)cc(F)cc12)NCc1cnn(C2CC(F)(F)C2)c1", "< 6.00"),
    ("O=C(CCc1c(-c2ccc(F)cc2)[nH]c2ccc(F)cc12)NC(CO)CF (centres unmarked)", "6.00 to 6.60"),
]

Then there is this compound:
Request: Fill in the blank: the reported pIC50 of "CN(CCO)C(=O)NCCc1c(-c2ccc(F)cc2)[nH]c2c(F)cc(F)cc12" is ____.
Response: < 6.00

* * *

# TARGET: G1 APOL1 (Homo sapiens, UniProt O14791, I384M/S342G)
# Construct: expressed in transfected cells
# RUN_DESCRIPTION: Acute APOL1 Thallium Assay with Inducible Stable Clones of HEK 293 Cells
# Format: cell-based
# CONDITION_INFO: HEK 293 inducible stable clones, G1 APOL1; read-out: Thallium Assay (IC50)
pIC50: −log10 of the molar value.
ENDPOINT: pIC50

As a guide, the following entries are already answered.
# COMPOUND, pIC50
rows = [
    ("O=C(CCc1c(-c2ccc(F)cc2)[nH]c2c(F)cc(F)cc12)N[C@H]1COC[C@@H]1O [Compound 181]", "< 6.00"),
    ("O=C(NCCc1c(-c2ccc(F)cc2)[nH]c2c(F)cc(F)cc12)C1(O)COC1 [Compound 342]", "6.00 to 6.60"),
    ("CC(C)(C)OC(=O)NC(CC(N)=O)C(=O)NCCc1c(-c2ccc(F)cc2)[nH]c2c(F)cc(F)cc12 (centres unmarked) [Compound 304]", "6.00 to 6.60"),
    ("Cn1cc(CNC(=O)CCCc2c(-c3ccc(F)cc3)[nH]c3c(F)cc(F)cc23)cn1 [Compound 254]", "< 6.00"),
    ("CCNC(=O)C(C)NC(=O)CCc1c(-c2ccc(F)cc2)[nH]c2ccc(F)cc12 (racemic) [Compound 12]", "6.00 to 6.60"),
    ("O=C1CC[C@@H](C(=O)NCCc2c(-c3ccc(F)cc3)[nH]c3c(F)cc(F)cc23)N1 [Compound 338]", "< 6.00"),
]

Request: Please report the recorded pIC50 for N[C@H]1C[C@H](NC(=O)CCc2c(-c3ccc(F)cc3)[nH]c3ccc(F)cc23)C1 [Compound 54] .
Response: < 6.00

Request: Bench note: what pIC50 did O=C(CCc1c(-c2ccc(F)cc2)[nH]c2c(F)cc(F)cc12)Nc1cccc(=O)[nH]1 [Compound 170] show?
Response: < 6.00

* * *

The compounds listed here are annotated with their IC50.
# TARGET: APOL1 G1 Protein (Homo sapiens, UniProt O14791, I384M/S342G)
# Sequence (O14791 28-398 S342G/I384M): as above
# RUN_DESCRIPTION: Trypanosoma brucei brucei Lysis Assay Using APOL1 Recombinant Protein (AlamarBlue viability)
# CONDITION_INFO: read-out: Trypanosomal Assay (IC50)

Solved entries:
# COMPOUND, ENDPOINT, EXPERIMENTAL_RESULT
data = [
    ("O=C(CCc1c(-c2ccc(F)cc2)[nH]c2c(F)cc(F)cc12)Nc1nnco1 [Compound 151]", "IC50", "> 1000 nM"),
    ("NC(=O)[C@H](CO)NC(=O)CCc1c(-c2ccc(F)cc2)[nH]c2c(F)cc(F)cc12 [Compound 123]", "IC50", "> 1000 nM"),
    ("O=C(CCc1c(-c2ccc(F)cc2)[nH]c2c(F)cc(F)cc12)NCc1ncc[nH]1 [Compound 134]", "IC50", "> 1000 nM"),
]

Continue with the next compound.
Request: Which value of IC50 has been reported for O=C(CCc1c(-c2ccc(F)cc2)[nH]c2ccc(F)cc12)N1CC(O)C1 [Compound 58] in the records?
Response: > 1000 nM

* * *

Reported values of pIC50 for individual entries
# TARGET: G1 APOL1 (Homo sapiens, UniProt O14791, I384M/S342G)
# Construct: expressed in transfected cells
# RUN_DESCRIPTION: Acute APOL1 Thallium Assay with Inducible Stable Clones of HEK 293 Cells
# Assay type: cell-based
# CONDITION_INFO: HEK 293 inducible stable clones, G1 APOL1; read-out: Thallium Assay (IC50)
pIC50: −log10 of the molar value.

These solved cases illustrate the format of a correct answer.
# MOLECULE, EXPERIMENTAL_RESULT
measured = [
    ("NC(=O)[C@H](CO)NC(=O)CCc1c(-c2ccc(F)cc2)[nH]c2c(F)cc(F)cc12", "< 6.00"),
    ("N#CC(CO)NC(=O)CCc1c(-c2ccc(F)cc2)[nH]c2c(F)cc(F)cc12 (centres unmarked)", "> 6.60"),
    ("CN1CC(NC(=O)CCc2c(-c3ccc(F)cc3)[nH]c3ccc(F)cc23)C(=O)N1 (centres unmarked)", "< 6.00"),
]

Request: What does the data say about its pIC50? Entry: CC(CN)NC(=O)CCc1c(-c2ccc(F)cc2)[nH]c2ccc(F)cc12 (racemic)
Response: < 6.00

Request: Which pIC50 value is on record for "C[C@@H](CO)NC(=O)CCc1c(-c2ccc(F)cc2)[nH]c2c(F)cc(Cl)cc12" ?
Response: < 6.00

Request: Return reported pIC50; argument: CC(CCO)NC(=O)CCc1c(-c2ccc(F)cc2)[nH]c2c(F)cc(F)cc12 (racemic)
Response: < 6.00

Request: Field request: pIC50 | item: "O=C(CCc1c(-c2ccc(F)cc2)[nH]c2ccc(F)cc12)NC1(CO)CCC1"
Response: > 6.60

Request: Give the measured pIC50 of "O=C(CCc1c(-c2ccc(F)cc2)[nH]c2ccc(F)cc12)NCC(F)F" .
Response: 6.00 to 6.60
